Target: Cdk2(C177A, F80C) (Homo sapiens, UniProt P24941, C177A/F80C)
Construct: poly-histidine; made in house; host or cells: E. coli
Experiment: Kinetic thiol consumption assay with Cdk2 mutant F80C, incl. kobs versus concentration (Kd, k2)
Type: binding
Conditions: Protein: Cdk2; cysteine position F80C; additional mutation C177A; in h^-1
readout kind: Rate constant with Cdk2 F80C

Examples with their reported Rate constant with Cdk2 F80C follow.
[
  {
    "compound": "C=CC(=O)N1CCN(Cc2ccc(Cl)cc2)CC1",
    "Rate constant with Cdk2 F80C": 0.01874
  },
  {
    "compound": "C=CC(=O)Nc1ccccc1-c1ccccc1",
    "Rate constant with Cdk2 F80C": 0.01378
  }
]

I. C=CC(=O)NCCc1c[nH]c2ccccc12
II. C=CC(=O)N1CCCC2(CCCc3ccccc32)C1 (stereo not drawn)
III. C=CC(=O)N1CCCCCC1c1ccc(N(C)C)cc1 (stereo not drawn)
IV. C=CC(=O)Nc1ccccc1C(=O)c1ccccc1
INPUT: Give the ascending ranking of the items by reported Rate constant with Cdk2 F80C. Thanks in advance for listing the labels in the requested order.
OUTPUT: III, I, II, IV

----------
Target: human cyclin-dependent kinase 2 (Cdk2) (Homo sapiens)
Construct: poly-histidine; made in house; host or cells: E. coli
Test: Kinetic thiol consumption assay with wild type Cdk2 (C177)
Type: binding
Conditions: Protein: Cdk2; cysteine position WT; in h^-1
readout kind: Rate constant with Cdk2 WT

Use these answered entries as a reference point.
[
  {
    "compound": "C=CC(=O)N(Cc1ccc2c(c1)CCO2)C1CCCC1 [CA-184]",
    "assay result": 0.2235
  },
  {
    "compound": "C=CC(=O)NC1C[C@@H](C(=C)C)CC=C1C (some centres unmarked) [EL-1074]",
    "assay result": 0.006082
  },
  {
    "compound": "CC1CN(C(=O)CCl)CC(C)O1 (centres unmarked) [EN012]",
    "assay result": 0.2933
  }
]

1. C=CC(=O)N1CCCC1c1cnc2ccccc2c1 (centres unmarked) [EL-1064]
2. C=CC(=O)N1CCN(Cc2ccc(Cl)cc2)CC1 [EL-1183]
3. C=CC(=O)N1CC(CCN2CCCC2=O)c2ccccc21 (centres unmarked) [CA-089]
4. C=CC(=O)NCC1CCCN1S(=O)(=O)c1ccc(C(=O)O)cc1 (centres unmarked) [BN122]
5. C=CC(=O)Nc1ccccc1C(=O)c1ccccc1 [EL-1004]
INPUT: Write the entries in order, lowest recorded Rate constant with Cdk2 WT first. Hello, could you send the labels back in the order asked? Thank you.
OUTPUT: 4, 2, 1, 5, 3

1. C=CC(=O)N1CCCCCC1c1ccc(N(C)C)cc1 (centres unmarked) [EL-1140]
2. C=CC(=O)N(CC(=O)NC1CC1)C1CC1 [CA-031]
INPUT: Returns the identifier with the smallest measured Rate constant with Cdk2 WT among 1 and 2 . State your choice using its label.
OUTPUT: 2
(2: 0.003072, 1: 0.00499)

----------
Biological target: Cdk2(C177A, F80C) (Homo sapiens, UniProt P24941, C177A/F80C)
Construct: poly-histidine; made in house; host or cells: E. coli
Test: Kinetic thiol consumption assay with Cdk2 mutant F80C, incl. kobs versus concentration (Kd, k2)
Format: binding
Settings: Protein: Cdk2; cysteine position F80C; additional mutation C177A; in h^-1
readout kind: Rate constant with Cdk2 F80C

Examples with answers:
[
  {
    "compound": "C=CC(=O)N1C(C(=O)c2ccccc2)C1c1ccccc1 (stereo not drawn) [CA-53]",
    "readout kind": "Rate constant with Cdk2 F80C",
    "assay result": 0.009547
  },
  {
    "compound": "C=CC(=O)N1CC(Cc2ccccc2)C1 [CA-072]",
    "readout kind": "Rate constant with Cdk2 F80C",
    "assay result": 0.0057
  },
  {
    "compound": "C=CC(=O)N1CCN(c2ccccc2C(N)=O)CC1 [EL-1155]",
    "readout kind": "Rate constant with Cdk2 F80C",
    "assay result": 0.003532
  },
  {
    "compound": "C=CC(=O)Nc1ccc(C(=O)c2ccccc2)cc1 [CA-219]",
    "readout kind": "Rate constant with Cdk2 F80C",
    "assay result": 1.187
  },
  {
    "compound": "C=CC(=O)N(Cc1ccco1)C12CC3CC(CC(C3)C1)C2 [CA-157]",
    "readout kind": "Rate constant with Cdk2 F80C",
    "assay result": 0.001367
  },
  {
    "compound": "C=CC(=O)Nc1ccc2nc(C)[nH]c2c1 [EL-1109]",
    "readout kind": "Rate constant with Cdk2 F80C",
    "assay result": 0.01663
  },
  {
    "compound": "C=CC(=O)NC(Cc1ccccc1)C(O)CF (stereo not drawn) [EL-1164]",
    "readout kind": "Rate constant with Cdk2 F80C",
    "assay result": 0.002151
  },
  {
    "compound": "C=CC(=O)N1CC2CCN(Cc3ccccc3)C2C1 (stereo not drawn) [CA-190]",
    "readout kind": "Rate constant with Cdk2 F80C",
    "assay result": 0.005293
  }
]

P. C=CC(=O)N(CC(=O)N1CCCC1)CC1CCCO1 (stereo not drawn) [CA-080/239]
Q. C=CC(=O)N1CCc2cc(-c3cccc(F)c3)ccc21 [CA-042]
INPUT: I'm curious, which of these has a smaller Rate constant with Cdk2 F80C number: P or Q ? Choose, then provide that item's label.
OUTPUT: P
(P: 0.001007, Q: 0.006272)

a. C=CC(=O)N(C)C1CC(OCC)C12CCC2 (stereo not drawn) [CA-048]
b. C=CC(=O)NC1(C2CC2)CC1 [CA-047]
INPUT: // compare measured Rate constant with Cdk2 F80C, left a , right b , return larger In your reply, give the label of the chosen option.
OUTPUT: a

1. O=S1(=O)C=CC(Br)C1 (stereo not drawn) [EN010]
2. C=CC(=O)Nc1cccc(C(F)(F)F)c1 [BN-80]
INPUT: Looking at 1 and 2 , which one comes out lower in Rate constant with Cdk2 F80C terms? Provide the label of your selected option as the answer.
OUTPUT: 1

----------
Molecular target: Cdk2(S276C) (C177A) (Homo sapiens, UniProt P24941, C177A/S276C)
Construct: poly-histidine; made in house; host or cells: E. coli
Assay: Kinetic thiol consumption assay with Cdk2 mutant S276C
Type: binding
Design: key: rate constant with Cdk2 ÷ rate constant with model thiol (fold)
Conditions: Cdk2 S276C, additional mutation C177A
readout kind: Rate enhancement, Cdk2 S276C

[
  {
    "compound": "C=CC(=O)NC(C)c1cc(OC)c(OC)c(OC)c1 (centres unmarked)",
    "Rate enhancement, Cdk2 S276C": 0.9981
  },
  {
    "compound": "C=CC(=O)N1CCC2(CCCN(Cc3ccccc3)C2)C1 (centres unmarked)",
    "Rate enhancement, Cdk2 S276C": 0
  }
]

P. C=CC(=O)NCCc1c(-c2ccccn2)[nH]c2ccccc12
Q. C=CC(=O)NCc1ccc(-c2ccccc2)cc1
INPUT: // pick min by Rate enhancement, Cdk2 S276C: P , Q Please reply using the label of the selected record.
OUTPUT: Q
(Q: 0, P: 0.5044)

I. C=CC(=O)Nc1ccccc1C#N
II. C=CC(=O)NC1(C(N)=O)CCCCC1
INPUT: Which record shows the lower Rate enhancement, Cdk2 S276C: the first, I , or the second, II ? Lab log: write the label of the selected item as the result.
OUTPUT: II
(II: 0.3126, I: 0.934)

a. C=CC(=O)N(C(=O)C=C)c1c2ccccc2n2c(C)nc3ccccc3c12
b. C=CC(=O)N1CCCCCC1c1cccnc1 (centres unmarked)
INPUT: // returns a or b , whichever has the lower Rate enhancement, Cdk2 S276C Answer = label.
OUTPUT: a

A. C=CC(=O)Nc1ccc(C(=O)NC2CCCC2)cc1
B. C=CS(=O)(=O)c1ccccc1
INPUT: // compare measured Rate enhancement, Cdk2 S276C, left A , right B , return larger Give the chosen item's label as your response.
OUTPUT: A
(A: 0.7973, B: 0.5145)

----------
Biological target: Cdk2(H71C) (C177A) (Homo sapiens, UniProt P24941, C177A/H71C)
Construct: poly-histidine; made in house; host or cells: E. coli
Experiment: Kinetic thiol consumption assay with Cdk2 mutant H71C
Assay type: binding
Details: Protein: Cdk2; cysteine position H71C; additional mutation C177A; in h^-1
readout kind: Rate constant with Cdk2 H71C

1. C=CC(=O)Nc1[nH]nc(C2CC2)c1-c1ccc2c(c1)OCO2 [CA-041]
2. C=CC(=O)N1CCN(Cc2noc(C3CC3)n2)CC1 [CA-091]
INPUT: Which of the two items, 1 and 2 , has the greater recorded Rate constant with Cdk2 H71C? # respond with the chosen item's label
OUTPUT: 1
(1: 0.003968, 2: 0.001506)
